# protocol_description: protein stability index of a GFP-peptide fusion (yeast GPS) (PSI 1-4); higher = more stable; sorted into four equal gates, so the index is relative within each strain
# condition_label: ubr1∆
recorded_endpoint: protein stability index

Examples from the recorded data:
>>> print(df.to_string())
             ordered_residues  recorded_result
0  MAKRTKKVGITGKYGVR [RPL43A]             3.55
1  RYDCSFCGKKTVKRGAA [RPL43A]             2.12
2   LPLYEKNTLLERLKQLT [SWP82]             2.87
3    YQVEYAFKATNQTNINS [SCL1]             3.06

Qu. Give reported protein stability index value for IEAEEAEEIGVEHLLRD [RPN8]
Ans. 3.23

Qu. Answer with the recorded protein stability index of GTGLQSYLEERERQVNE [RPC53] only.
Ans. 3.25

Qu. Look up and report measured protein stability index for this entry: HRVAENWRKQKGIDSVV [RPL32]
Ans. 2.25

Qu. State its protein stability index: GNGKLSEHFLYLAKELN [RPN1]
Ans. 2.98

Source: the supplement of paper PMC9732359
